Data provenance is patent US9409952B2.

Documented log10(microsomal CLint at 1 uM) across a set of compounds
- ASSAY_INFO: Metabolic stability in human hepatic microsome
- Format: in vitro ADME
- PROTOCOL_CONDITIONS: microsomes, pH 7.4; human hepatic microsome, NADPH(+); read-out: CL NADPH(+)
Starred links: 1 amine or outer side, 2 acyl side, 3 side chain; linkers in the order of their positions; H or OH if unused. Positions of bridges follow the written chain, without caps; N, C: chain ends. Non-standard residues stand in square brackets, D forms with d. Residues, ends and D or L forms follow the SMILES beside them. *: point of attachment. NMeF = CN[C@@H](Cc1ccccc1)C(=O)O; NMeβAla = CN(CCC(=O)[*:2])[*:1]; NMeL = CN[C@@H](CC(C)C)C(=O)O; NMeV = CN[C@H](C(=O)O)C(C)C; NMeA = CN[C@@H](C)C(=O)O; Piperidide = C1CCN(*)CC1; dNMeA = CN[C@H](C)C(=O)O; β3hA = C[C@H](N)CC(=O)O; Sar = CNCC(=O)O; tBu = CC(C)(C)*
Use the decimal logarithm of microsomal CLint at 1 uM (µL/min/mg).

Here are 3 compounds together with their reported answers.
CC(C)C[C@H](NC(=O)[C@@H](NC(=O)[C@@H]1CCCN1C(=O)[C@@H]1CC(=O)N[C@H](C)C(=O)N(C)[C@@H](C)C(=O)N(C)[C@@H](Cc2ccccc2)C(=O)N(C)[C@@H](CC(C)C)C(=O)N[C@@H]([C@@H](C)O)C(=O)N(C)CC(=O)N(C)[C@@H](CC(C)C)C(=O)N[C@@H](COC(C)(C)C)C(=O)N(C)[C@@H](CC(C)C)C(=O)N1)C(C)C)C(=O)N1CCCCC1 [DP-579] ([dA][NMeA][NMeF][NMeL]T[Sar][NMeL]S(tBu)[NMeL]DPVL-Piperidide; lactam N-10)
1.28
CC(C)C[C@H]1C(=O)N[C@@H]([C@@H](C)O)C(=O)N(C)[C@@H](Cc2ccccc2)C(=O)N(C)[C@@H](CC(C)C)C(=O)NCC(=O)N(C)[C@@H](C(C)C)C(=O)N[C@@H](Cc2ccccc2)C(=O)N[C@H](C(=O)N(C)[C@@H](Cc2ccccc2)C(=O)N[C@@H](C)C(=O)N2CCCCC2)CC(=O)N(C)CCC(=O)N[C@@H](C(C)C)C(=O)N1C [DP-193] ([NMeβAla]V[NMeL]T[NMeF][NMeL]G[NMeV]FD[NMeF]A-Piperidide; lactam N-10)
2.09
C=C1CCC(=O)N[C@@H](CC(C)C)C(=O)N2CCC[C@H]2C(=O)N[C@@H]([C@@H](C)O)C(=O)N(C)CC(=O)N[C@@H](Cc2ccccc2)C(=O)N(C)[C@@H](C(C)C)C(=O)N(C)[C@@H](C)C(=O)N[C@@H](CC(C)C)C(=O)N(C)[C@@H](CC(C)C)C(=O)N[C@H](C(=O)N2CCCCC2)Cc2cccc1c2
2.32

For CC(C)C[C@H]1C(=O)N[C@@H](C(C)C)C(=O)N(C)[C@@H](C)C(=O)N[C@@H]([C@@H](C)O)C(=O)N(C)[C@@H](C)C(=O)N[C@H](C(=O)N2CCCCC2)CC(=O)N(C)CCC(=O)N(C)[C@@H](C)C(=O)N(C)[C@@H](Cc2ccccc2)C(=O)N[C@@H](C)C(=O)N(C)[C@@H](CC(C)C)C(=O)N(C)CC(=O)N1C [DP-511] ([NMeβAla][NMeA][NMeF]A[NMeL][Sar][NMeL]V[NMeA]T[NMeA]D-Piperidide; lactam N-12) , what is its reported log10(microsomal CLint at 1 uM)? 1.18

Quick check: log10(microsomal CLint at 1 uM) of CC[C@H](C)[C@@H]1NC(=O)[C@H](C)N(C)C(=O)[C@H]([C@@H](C)O)NC(=O)[C@H](C(C)C)N(C)C(=O)[C@@H](C)N(C)C(=O)C[C@H](C)NC(=O)[C@H](Cc2ccccc2)NC(=O)[C@H](C)NC(=O)[C@H](Cc2ccccc2)N(C)C1=O [DP-819] (cyclo(AF[β3hA][dNMeA][NMeV]T[NMeA]I[NMeF])) ? 2.13
